Biological target: HIV Env of isolate T235-47 (clade AG) (HIV)
Assay: cell-based or functional assay
endpoint_label: IC80 (µg/ml) with constrains (µg/mL)
Report the figure in µg/mL without appending any unit label.

Worked cases, IC80 (µg/ml) with constrains given:
1. ePGDM9 (antibody, V domains shown) VH: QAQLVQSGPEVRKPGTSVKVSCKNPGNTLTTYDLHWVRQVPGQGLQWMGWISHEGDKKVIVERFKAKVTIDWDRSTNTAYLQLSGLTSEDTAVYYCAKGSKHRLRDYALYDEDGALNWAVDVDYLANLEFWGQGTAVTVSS VL: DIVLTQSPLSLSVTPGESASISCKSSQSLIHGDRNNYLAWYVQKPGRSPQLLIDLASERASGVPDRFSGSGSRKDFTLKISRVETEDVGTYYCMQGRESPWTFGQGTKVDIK	0.017
2. PGDM1400 (antibody, V domains shown) VH: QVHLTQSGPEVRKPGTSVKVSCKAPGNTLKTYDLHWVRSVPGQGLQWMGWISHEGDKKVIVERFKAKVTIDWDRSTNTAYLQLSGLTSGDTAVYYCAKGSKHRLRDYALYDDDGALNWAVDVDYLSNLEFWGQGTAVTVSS VL: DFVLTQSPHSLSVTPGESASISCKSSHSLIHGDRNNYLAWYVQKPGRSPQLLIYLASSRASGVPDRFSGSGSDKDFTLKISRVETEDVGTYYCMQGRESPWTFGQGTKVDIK	0.044
3. ePGDM5 (antibody, V domains shown) VH: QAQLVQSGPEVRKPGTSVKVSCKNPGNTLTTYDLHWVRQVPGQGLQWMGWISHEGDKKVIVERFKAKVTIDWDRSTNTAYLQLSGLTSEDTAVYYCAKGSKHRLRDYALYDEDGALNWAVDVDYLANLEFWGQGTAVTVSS VL: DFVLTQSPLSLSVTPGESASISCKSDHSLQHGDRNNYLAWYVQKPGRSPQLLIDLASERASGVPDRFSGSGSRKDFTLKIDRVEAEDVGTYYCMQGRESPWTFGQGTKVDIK	0.022

Now for the binder whose IC80 (µg/ml) with constrains we want.
Given ePGDM13 (antibody, V domains shown) VH: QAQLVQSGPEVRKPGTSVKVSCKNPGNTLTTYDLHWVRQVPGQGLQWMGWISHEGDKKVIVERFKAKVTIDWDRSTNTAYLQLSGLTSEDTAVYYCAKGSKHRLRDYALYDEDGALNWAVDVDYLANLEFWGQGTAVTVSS VL: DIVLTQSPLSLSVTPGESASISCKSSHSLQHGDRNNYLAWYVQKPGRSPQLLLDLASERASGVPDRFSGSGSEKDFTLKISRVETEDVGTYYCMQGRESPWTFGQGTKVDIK , respond with its IC80 (µg/ml) with constrains.
0.019
